Ref: ChEMBL document CHEMBL1125652

- assayed.system: Glutamate receptor ionotropic, kainate (Rattus norvegicus) (UniProt P22756+Q01812+P42260+P42264+Q63273)
- assay.explanation: Apparent dissociation constant of [3H]kainate from Ionotropic glutamate receptor ionotropic kainate was determined in rat cortical slice preparation
If the reported Kb equals or exceeds 50 µM, assign criterion met. If not, assign criterion not met.

# count of solved cases: 7
[[record]]
compound = "Oc1nc2ccc(Cl)cc2nc1O"
assigned_label = "criterion not met"

[[record]]
compound = "O=C(O)c1cc(O)c2cc(C(F)(F)F)ccc2n1"
assigned_label = "criterion met"

[[record]]
compound = "O=C(O)c1cc(=O)c2ccccc2[nH]1 [TRANSTORINE]"
assigned_label = "criterion met"

[[record]]
compound = "O=C(O)c1cc(O)c2c(Cl)c(Cl)c(Cl)cc2n1"
assigned_label = "criterion not met"

[[record]]
compound = "O=C(O)c1cc(O)c2cc(I)ccc2n1"
assigned_label = "criterion not met"

[[record]]
compound = "Cc1ccc2nc(C(=O)O)cc(O)c2c1"
assigned_label = "criterion met"

[[record]]
compound = "O=[N+]([O-])c1ccc2nc(O)c(O)nc2c1"
assigned_label = "criterion not met"


Consider the record given below.
query: // inclusive: Kb at least 50 µM? input: Oc1nc2cc(Cl)c(Cl)cc2nc1O [2,3-DIHYDROXY-6,7-DICHLOROQUINOXALINE]
result: criterion not met

----------
- assayed.system: Glutamate NMDA receptor
- assay.explanation: Inhibition of [3H]glycine binding to glycine site of N-methyl-D-aspartate glutamate receptor in rat cortical membranes
- Type: cell membranes, Membrane
measured.attribute: pIC50
Reminder that pIC50 is minus the log10 of a molar concentration.

query: Find the measured pIC50 of O=[N+]([O-])c1ccc2nc(O)c(O)nc2c1 and report it.
result: 5.08

query: Note pIC50 for the compound shown: Cc1cc(I)cc2nc(C(=O)O)cc(O)c12
result: 5.92

query: Quote pIC50 reported for O=C(O)c1cc(O)c2ccc(I)cc2n1 please.
result: 5.44

----------
Below, each entry is listed alongside its reported IC50.
- assayed.system: Glutamate NMDA receptor
- assay.explanation: Inhibition of [3H]-glutamate binding to N-methyl-D-aspartate glutamate receptor of rat cortical membranes
- Type: cell membranes, Membrane

For orientation, consider the following solved cases.
[[record]]
smiles_entry = "O=C(O)c1cc(O)c2cc(Cl)ccc2n1"
assayed_system = "Glutamate NMDA receptor"
result = "> 300 µM"

[[record]]
smiles_entry = "O=C(O)c1cc(O)c2ccc(Cl)cc2n1"
assayed_system = "Glutamate NMDA receptor"
result = "169 µM"


We now examine a further compound.
query: Please respond with reported IC50 (system Glutamate NMDA receptor) for O=C(O)c1cc(O)c2c(Cl)cc(Cl)cc2n1 .
result: > 100 µM

----------
- assayed.system: Glutamate NMDA receptor (Rattus norvegicus) (UniProt P35439+Q00959+Q00960+Q00961+Q62645+Q8VHN2+Q9R1M7)
- assay.explanation: Apparent dissociation constant of [3H]glycine from N-methyl-D-aspartate glutamate receptor in rat cortical slice preparation expressed as log values.
Binarize -Log 1/Kb at 5; below is YES, at or above is NO.

query: Find out if reported -Log 1/Kb for CCc1cccc2nc(C(=O)O)cc(O)c12 is less than 5
result: NO

query: Below 5 on -Log 1/Kb? Entry O=C(O)c1cc(O)c2ccc(I)cc2n1
result: YES

query: Threshold test, -Log 1/Kb < 5: CSc1ccc2c(O)cc(C(=O)O)nc2c1
result: YES

query: Is the reported -Log 1/Kb for O=C(O)c1cc(O)c2ccc([N+](=O)[O-])cc2n1 strictly below 5?
result: YES

query: Please check: -Log 1/Kb for O=C(O)c1cc(O)c2c(I)cc(Cl)cc2n1 , strictly under 5 or not?
result: NO

query: Strictly below 5: is that where -Log 1/Kb of Cc1cc(Br)cc2nc(C(=O)O)cc(O)c12 sits?
result: NO
